Data origin: ChEMBL document CHEMBL4184178

target: Lysophosphatidic acid receptor 5 (Rattus norvegicus, UniProt D4ADR1); assay: Antagonist activity at rat LPA5 receptor expressed in CHO cells assessed as inhibition of LPA-induced cAMP accumulation after 30 mins by Lance Ultra assay
Sequence (D4ADR1 whole entry): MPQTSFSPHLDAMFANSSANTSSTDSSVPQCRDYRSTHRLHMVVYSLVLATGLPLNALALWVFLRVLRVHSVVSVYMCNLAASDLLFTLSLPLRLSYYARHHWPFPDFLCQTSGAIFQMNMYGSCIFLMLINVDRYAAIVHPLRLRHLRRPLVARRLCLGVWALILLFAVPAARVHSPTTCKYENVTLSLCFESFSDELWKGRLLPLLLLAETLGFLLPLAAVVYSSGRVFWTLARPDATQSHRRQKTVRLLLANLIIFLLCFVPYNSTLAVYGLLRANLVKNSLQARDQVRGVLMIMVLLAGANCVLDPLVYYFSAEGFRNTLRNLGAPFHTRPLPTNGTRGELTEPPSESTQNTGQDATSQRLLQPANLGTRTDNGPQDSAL
pIC50: −log10 of the molar value.
Collected pIC50 values appear next to each entry.
observation.type: pIC50

>  <smiles.representation>
CCCCCCN(C)C(=O)c1cn(-c2ccc(OCC)cc2)c(=O)c2cc(OC)c(OC)cc12

>  <observation.type>
pIC50

>  <lt.gt.eq>
<

>  <observed.value>
5.00

$$$$
>  <smiles.representation>
CCN1CCc2ccc(-n3cc(C(=O)N4CCCCCC4)c4cc(OC)c(OC)cc4c3=O)cc21

>  <observation.type>
pIC50

>  <lt.gt.eq>
=

>  <observed.value>
6.96

$$$$
>  <smiles.representation>
COc1cc2c(C(=O)N3CCCCCC3)cn(-c3ccc(C(N)=O)cc3)c(=O)c2cc1OC

>  <observation.type>
pIC50

>  <lt.gt.eq>
<

>  <observed.value>
4.52

$$$$
>  <smiles.representation>
CCN1CCc2ccc(-n3cc(C(=O)N4CCC(F)CC4)c4cc(OC)c(OC)cc4c3=O)cc21

>  <observation.type>
pIC50

>  <lt.gt.eq>
=

>  <observed.value>
6.92

$$$$
>  <smiles.representation>
COc1cc2c(C(=O)N3CCCCCC3)cn(-c3cccc(N(C)C)c3)c(=O)c2cc1OC

>  <observation.type>
pIC50

>  <lt.gt.eq>
=

>  <observed.value>
6.89

$$$$
>  <smiles.representation>
CCc1ccc(-n2cc(C(=O)N3CCCCCC3)c3cc(OC)c(OC)cc3c2=O)cc1

>  <observation.type>
pIC50

>  <lt.gt.eq>
=

>  <observed.value>
6.24

$$$$
>  <smiles.representation>
COc1cc2c(C(=O)N3CCCCCC3)cn(-c3ccc(F)cc3)c(=O)c2cc1OC

>  <observation.type>
pIC50

>  <lt.gt.eq>
<

>  <observed.value>
5.52

$$$$
>  <smiles.representation>
COc1cc2c(C(=O)N3CCCCCC3)cn(C(C)C)c(=O)c2cc1OC

>  <observation.type>
pIC50

>  <lt.gt.eq>
<

>  <observed.value>
4.52

$$$$
>  <smiles.representation>
CCOc1ccc(-n2cc(C(=O)N3CCC(F)CC3)c3cc(OC)c(OC)cc3c2=O)cc1

>  <observation.type>
pIC50

>  <lt.gt.eq>
=

>  <observed.value>
6.12

$$$$
>  <smiles.representation>
COc1cc2c(C(=O)N3CCCCCC3)cn(-c3ccc(C)c(C)c3)c(=O)c2cc1OC

>  <observation.type>
pIC50

>  <lt.gt.eq>
=

>  <observed.value>
6.14

$$$$
>  <smiles.representation>
CCOc1ccc(-n2cc(C(=O)N3CCCCCC3)c3cc(OC)c(OC)cc3c2=O)cc1

>  <observation.type>
pIC50

>  <lt.gt.eq>
=

>  <observed.value>
5.74

$$$$
